The values you see were collected from ChEMBL document CHEMBL1201862.

System: KM-20L2
protocol: NCI tumour cell line growth inhibition, 48 h
The source made the active and inactive calls. No stated cut-off is given here; in the data, active = GI50 up to about 1.1 µM and inactive = higher.
value_kind: GI50

// below: answered molecules
molecule="COc1cc([C@@H]2c3cc4c(cc3[C@@H](NCc3ccc(C#N)cc3)C3COC(=O)[C@@H]32)OCO4)cc(OC)c1O (stereo partly specified)" subject_of_test=KM-20L2 recorded_result="1.08 µM (active)"
molecule="CCOC(=O)CC1(c2cccc3ccccc23)OC(=O)c2ccccc21 (stereo unspecified)" subject_of_test=KM-20L2 recorded_result="45 µM (inactive)"

Query: Entry NNC(=O)N/N=C1\CN(c2ccc(Cl)cc2Cl)C(=O)C(=O)C1c1nc2ccccc2o1 (stereo unspecified) has what GI50?
Result: > 100 µM (inactive)

Query: Entry CC(C)C12Cc3c(ccc4ccccc34)OC1(C)Oc1ccc3ccccc3c1C2 (stereo unspecified) has what GI50?
Result: > 100 µM (inactive)

Query: Entry "CN1CCN(C)C12C=c1ccccc1=CC21CC1" has what GI50?
Result: 27.3 µM (inactive)

Query: Entry "CCCCc1c2c(nc3c1CCc1cc4c(nc1-3)-c1nc3c(c(CCCC)c1CC4)CCC/C3=C\c1ccccc1)/C(=C/c1ccccc1)CCC2" has what GI50?
Result: > 100 µM (inactive)

Query: Entry COc1ccc(/C=c2\sc3n(c2=O)C(N)=C(C#N)C(c2ccc(OC)cc2)C=3c2nc3ccccc3[nH]2)cc1 (stereo unspecified) has what GI50?
Result: 42.2 µM (inactive)

Query: Entry C=C1C(O)C2(O)OCC34C(CC5C(C)=CC(=O)C(O)C5(C)C23)OC(=O)C(OC(=O)C/C=C/CCCCCCCC)C14 (stereo unspecified) has what GI50?
Result: 0.0208 µM (active)

Query: Entry "CC(C)OP(=O)(OC(C)C)/C(=N/Nc1ccc([N+](=O)[O-])cc1)NCCN/C(=N\Nc1ccc([N+](=O)[O-])cc1)P(=O)(OC(C)C)OC(C)C" has what GI50?
Result: 4.52 µM (inactive)

Query: Entry CC(=O)OC1=C2CC[C@@H]3C(CC[C@@]4(C)C3CC[C@@H]4OC(C)=O)[C@@]2(C)CC(C#N)C1=O (stereo partly specified) has what GI50?
Result: 27.7 µM (inactive)

Query: Entry OCC1CC2C=CCC(C2)C1 (stereo unspecified) has what GI50?
Result: > 100 µM (inactive)

Query: Entry "O=C1c2cnccc2Cc2cccc3c2N1c1ccccc1S3" has what GI50?
Result: 17.6 µM (inactive)

Query: Entry N#CC12CCC(O)C(CC1)C2=O (stereo unspecified) has what GI50?
Result: > 100 µM (inactive)

Query: Entry "COc1ccc(/C=C2/CCCC/C2=N/O)cc1" has what GI50?
Result: > 100 µM (inactive)

Query: Entry COc1cc2c(cc1OC)C(CC1=C(c3ccccc3)CN3CCc4cc(OC)c(OC)cc4C3C1)NCC2 (stereo unspecified) has what GI50?
Result: 13.4 µM (inactive)

Query: Entry "CCNC(=O)COc1ccc(Br)cc1Br" has what GI50?
Result: > 100 µM (inactive)

Query: Entry CCOC(=O)C1C(=O)c2ccccc2CN1Cc1ccccc1 (stereo unspecified) has what GI50?
Result: > 100 µM (inactive)

Query: Entry "CCc1cc(Cc2cc(CC)c(NC(=O)C(=O)Cc3ccccn3)c(CC)c2Cl)c(Cl)c(CC)c1NC(=O)C(=O)Cc1ccccn1" has what GI50?
Result: > 100 µM (inactive)

Query: Entry COC(=O)C(Cc1nc2ccccc2nc1O)C(=O)C(=O)Nc1ccc(OC)cc1[N+](=O)[O-] (stereo unspecified) has what GI50?
Result: > 100 µM (inactive)

Query: Entry "Cn1nc(-c2ccccc2)c2c(/C=C/c3ccccc3)onc2c1=O" has what GI50?
Result: > 100 µM (inactive)

====

Tested on: UO-31
protocol: NCI tumour cell line growth inhibition, 48 h
Active and inactive are the calls of the source. Cut-off read from the data, not from the text of the source: active = GI50 up to about 1.1 µM and inactive = higher.
Choose one outcome from this list and give only that: yes (1) for active, no (0) for inactive

Query: Record request — test call for CCC(=O)NCC1CCCN2CCCCC12 (stereo unspecified)
Result: no (0)

Query: Record request — test call for "CN(C)CN(C)c1nc(N(C)C)nc(N(C)CN(C)C)n1"
Result: no (0)

Query: Record request — test call for "Nc1nc(SCCc2ccccc2)nc2nc3c(c(-c4ccccc4)c12)CCCC3"
Result: no (0)

Query: Record request — test call for "Cc1cn(C(=O)NC23CC4CC(CC(C4)C2)C3)c(=O)[nH]c1=O"
Result: no (0)

====

Measured GI50 by item
System: NCI-H522
protocol: NCI tumour cell line growth inhibition, 48 h
The source made the active and inactive calls. No stated cut-off is given here; in the data, active = GI50 up to about 1.1 µM and inactive = higher.

compound="CCOC(=O)C1C(c2ccc3c(c2)OCO3)c2c(n[nH]c2O)CC1(C)O (stereo not given)" recorded_result="> 100 µM (inactive)"
compound=CC(=O)Oc1cc(OC(C)=O)c2c(=O)c3ccccc3[nH]c2c1 recorded_result="24.8 µM (inactive)"
compound="CC12CCC(=O)C=C1CCC1C2C(O)CC2(C)C(c3csc(N)n3)CCC12.O=S(=O)(O)c1ccc(Br)cc1 (stereo not given)" recorded_result="> 100 µM (inactive)"

Query: Entry CC(C)=CC(C(O)c1ccccc1)S(=O)(=O)c1nccn1C (stereo not given) has what GI50?
Result: > 100 µM (inactive)

Query: Entry "Cc1ccc(Nc2nc(C)c(C(/C=C/c3ccc(/C=C/C(=N/NC(=O)C[n+]4ccccc4)c4sc(Nc5ccc(C)cc5[N+](=O)[O-])nc4C)cc3)=N\NC(=O)C[n+]3ccccc3)s2)c([N+](=O)[O-])c1" has what GI50?
Result: > 100 µM (inactive)

====

System: NCI/ADR-RES
protocol: NCI tumour cell line growth inhibition, 48 h
Active and inactive are the calls of the source. Cut-off read from the data, not from the text of the source: active = GI50 up to about 1.1 µM and inactive = higher.
Choose one outcome from this list and give only that: yes (active), no (inactive)

Below, 2 compounds whose answers are already recorded.
compound="CN(Cc1cnc2nc(N)nc(N)c2n1)c1ccc(C(=O)NC(CO)CCCO)cc1 (stereo unspecified)" subject_of_test=NCI/ADR-RES label=no
compound=CC(C)OC(=O)c1ccc(CCc2cc(O)c(Br)cc2O)cc1 subject_of_test=NCI/ADR-RES label=no

In the following, a different compound is considered.
Query: Record request — test call for COC(=O)C(Cc1ccccc1)OC(=O)C(N)CC(=O)O (stereo unspecified)
Result: no

====

Test system: HT-29
protocol: NCI tumour cell line growth inhibition, 48 h
Active and inactive are the calls of the source. Cut-off read from the data, not from the text of the source: active = GI50 up to about 1.1 µM and inactive = higher.
value_kind: GI50

// below: answered compounds
compound="C=C1C2CC3CCC2C(OC(=O)c2ccccc2C(=O)O)C13 (centres undefined)" recorded_result="> 100 µM (inactive)"
compound=CC(C)=C1C(=O)C[C@]2(C)C[C@H]3O[C@]3(C)CC[C@@H]3O[C@@]3(C)CC[C@@H]12 recorded_result="> 50 µM (inactive)"

Query: GI50 of COc1cc(C(=O)N2CCc3c([nH]c4c([N+](=O)[O-])c(OC)ccc34)C2C)cc(OC)c1OC (centres undefined) on HT-29?
Result: > 100 µM (inactive)

Query: GI50 of CC1CC2(CC[C@@H]1O)OCCO2 (some centres undefined) on HT-29?
Result: > 100 µM (inactive)

====

Test system: MDA-N
protocol: NCI tumour cell line growth inhibition, 48 h
Calls of active or inactive are those of the source. No stated cut-off is given here; in the data, active = GI50 up to about 1.1 µM and inactive = higher.
Choose one outcome from this list and give only that: active, inactive

Below, 6 compounds whose answers are already recorded.
compound="COc1ccc2c(c1)CC[C@@H]1C2CC[C@]2(C)C(=O)N(C)C(=O)CC12 (some centres undefined)" subject_of_test=MDA-N label=inactive
compound="C/C(CC(O)(/C=N/O)c1ccccc1)=N/O (centres undefined)" subject_of_test=MDA-N label=inactive
compound="CN(C(=O)[C@H](NC(=O)OCc1ccccc1)c1ccccc1)C1CCCCC1N1CCCC1 (some centres undefined)" subject_of_test=MDA-N label=inactive
compound=O=C1NC(=S)NC(=O)C1C(c1ccc(O)cc1)C1C(=O)NC(=S)NC1=O.c1ccncc1 subject_of_test=MDA-N label=inactive
compound=CC(C)C1=Cc2ccc3c(c2C(=O)C1=O)CCCC3 subject_of_test=MDA-N label=inactive
compound=Cc1cc[n+]2c(c1)-c1cc(C)cc[n+]1CC2 subject_of_test=MDA-N label=inactive

Query: Record request — test call for "Cc1cn(C(=O)NC23CC4CC(CC(C4)C2)C3)c(=O)[nH]c1=O"
Result: inactive

Query: Record request — test call for "NCC(=O)Nc1ccc(S(=O)(=O)O)c2cc(S(=O)(=O)O)cc(S(=O)(=O)O)c12"
Result: inactive

Query: Record request — test call for "CC1(C)C(=O)/C(=C/c2ccccc2)C(C)(C)C1(C)C"
Result: inactive

Query: Record request — test call for "O=C1C[C@H]2[C@H](c3ccc(Br)cc3)[C@H]3C(=O)c4ccccc4NC(=O)[C@@H]3[C@@]2(O)c2ccccc2N1"
Result: inactive

Query: Record request — test call for COC(=O)c1c(C)cccc1C1CN=NC12Cc1cc(C)c(C)cc1C2=O (centres undefined)
Result: inactive
